The origin of these recorded values is ChEMBL document CHEMBL1201862.

Test system: HCT-116
Method: NCI tumour cell line growth inhibition, 48 h
Active and inactive are the calls of the source. Cut-off read from the data, not from the text of the source: active = GI50 up to about 1.1 µM and inactive = higher.
Measured Attribute: GI50

Molecule	Experimental Target	GI50
CCN(CC)CCCn1c(=O)c2ccccc2n2c3c(=O)n(C)c(=O)n(C)c3nc12	HCT-116	4.65 µM (inactive)
C=C1C(=O)OC2/C=C(/C)C(OC(C)=O)CC(O)/C(C)=C\C(OC(=O)/C(C)=C\C)C12 (stereo not given)	HCT-116	18.2 µM (inactive)

Lookup: Entry `COc1ccc(/C=C/c2cc(OC)cc(OC)c2)cc1` : reported GI50 = ?
Found: 4.17 µM (inactive)

Lookup: Entry `CCN(CC)CC(=O)Nc1ccc2c(c1)C(=O)c1ccc(NC(=O)CN(CC)CC)cc1C2=O` : reported GI50 = ?
Found: 13.6 µM (inactive)

Lookup: Entry CC(C)/C=N\N1C(N)=C(C#N)C(C#N)(C#N)C1C(C)C (stereo not given) : reported GI50 = ?
Found: 47.9 µM (inactive)
